Let's look at some molecules and their measured MIC.
- Tested on: Staphylococcus aureus
- test method notes: Antibacterial activity against methicillin-resistant Staphylococcus aureus 936 after 18 hrs by CLSI based broth microdilution method
- Type: functional
- measurement context: Staphylococcus aureus, 936, 18 h
// units = µM; emit number, no label

molecule	MIC / µM
CC1(C)S[C@@H]2[C@H](NC(=O)Cc3ccccc3)C(=O)N2[C@H]1C(=O)O	32

Challenge: Query (molecule): "CCCCCCCCCCCC(=O)NCC(=O)N[C@@H](CC(C)C)C(=O)N[C@@H](CC(C)C)C(=O)N[C@H](CCCCN)C(=O)N[C@@H](CCCNC(=N)N)C(=O)N[C@H](C(=O)N[C@H](CCCCN)C(=O)N[C@H](C(=O)N[C@@H](CC(C)C)C(=O)N[C@@H](CC(C)C)C(N)=O)[C@@H](C)O)[C@@H](C)CC" ; field requested: MIC
Response given: 16
